B1: library; numbered along this chain (parent)
chain: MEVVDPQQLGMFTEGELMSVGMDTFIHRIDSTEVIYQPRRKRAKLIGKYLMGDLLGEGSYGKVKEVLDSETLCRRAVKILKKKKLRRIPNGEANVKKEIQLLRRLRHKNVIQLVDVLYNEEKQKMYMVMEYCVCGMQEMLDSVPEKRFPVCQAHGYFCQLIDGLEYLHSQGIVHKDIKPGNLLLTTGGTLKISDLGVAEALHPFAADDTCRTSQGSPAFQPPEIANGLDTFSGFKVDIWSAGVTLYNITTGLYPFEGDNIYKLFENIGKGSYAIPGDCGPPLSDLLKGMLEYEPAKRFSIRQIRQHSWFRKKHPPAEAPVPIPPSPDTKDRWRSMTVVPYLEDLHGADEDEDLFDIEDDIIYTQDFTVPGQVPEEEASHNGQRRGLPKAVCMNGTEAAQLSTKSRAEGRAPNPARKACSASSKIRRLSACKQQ

variants of: B1; assay: STK11 functional score (HeLa growth suppression), rescaled enrichment; synonymous median = 1, nonsense median = 0 (normalised score); conditions: with HeLa; variant type: missense
Could you please classify the records by STK11 functional score using these ranges: lower range = under 0.8, middle range = from 0.8 up to 1, upper range = 1 and over

Examples from the recorded data:
> print(dat)
   mutations   class.label
1      K416C   upper range
2       I29F   lower range
3      W239Y  middle range
4      L263F  middle range
5      N259G   lower range
6       I99G   lower range
7      C132E   upper range
8      V114S   lower range

In: Category of Y166F , please.
Out: upper range

In: Category of K124R , please.
Out: upper range
